Reported values of pEC50, cAMP accumulation for individual entries
Molecular target: human Glucagon receptor (GCGR) (human, UniProt P47871 26-477)
Experiment: cell-based or functional assay
*1 amine or outer side, *2 acyl side, *3 side chain or, on linkers, in order; H or OH if unused. Bridges are numbered along the chain shown (N, C = ends). Primed or numbered codes have the meaning given here. Where no end group is shown, it is not given here. Side-chain parts run from the residue outwards. [ ]: non-standard residue; d: D form. The star is where a group is joined. dpeg″ = spacer —[CO(CH2)O(CH2)2O(CH2)NH]—, O=C(COCCOCN[*:1])[*:2]; dpeg = —[CO(CH2)O(CH2)2O(CH2)NH]— spacer, O=C(COCCOCN[*:1])[*:2]; C20 diacid = O=C(O)CCCCCCCCCCCCCCCCCCC(=O)*; γGlu = O=C(O)[C@H](CCC(=O)[*:2])N[*:1]; Aib = CC(C)(N)C(=O)O

>>> result_value("YSHGTFTSDYSKYLD[Aib]KYAQK([γGlu-γGlu-dpeg-C20 diacid])FV[Aib]WLEDEPSSGAPPPS-OH [Compound A6]")
"12.2 pEC50 (-log M)"
>>> result_value("YSHGTFTSDYSKYLDK([γGlu-γGlu-dpeg-C20 diacid])KYAKEFV[Aib]WLESEPSSGAPPPS-OH [Compound A22]")
"11.7 pEC50 (-log M)"
>>> result_value("YSHGTFTSDYSKYLDK([γGlu-γGlu-dpeg-C20 diacid])KYAQEFV[Aib]WLEQEPSSGAPPPS-OH [Compound A17]")
"12.1 pEC50 (-log M)"
>>> result_value("YSHGTFTSDYSKYLDK([γGlu-γGlu-dpeg-C20 diacid])KYAQEFV[Aib]WLEDEPSSGAPPPS-OH [Compound A2]")
"12.5 pEC50 (-log M)"

Using the record for YSHGTFTSDYSKYLD[Aib]KYAQK([γGlu-γGlu-dpeg″-C20 diacid])FVKWLEDEPSSGAPPPS-OH (lactam 24-28) [Compound A30] , state its measured pEC50, cAMP accumulation.
12.5 pEC50 (-log M)
